# assay-target: Neuronal acetylcholine receptor; alpha4/beta2 (Homo sapiens, UniProt P17787+P43681)
# Sequence (P43681 whole entry, one chain of several): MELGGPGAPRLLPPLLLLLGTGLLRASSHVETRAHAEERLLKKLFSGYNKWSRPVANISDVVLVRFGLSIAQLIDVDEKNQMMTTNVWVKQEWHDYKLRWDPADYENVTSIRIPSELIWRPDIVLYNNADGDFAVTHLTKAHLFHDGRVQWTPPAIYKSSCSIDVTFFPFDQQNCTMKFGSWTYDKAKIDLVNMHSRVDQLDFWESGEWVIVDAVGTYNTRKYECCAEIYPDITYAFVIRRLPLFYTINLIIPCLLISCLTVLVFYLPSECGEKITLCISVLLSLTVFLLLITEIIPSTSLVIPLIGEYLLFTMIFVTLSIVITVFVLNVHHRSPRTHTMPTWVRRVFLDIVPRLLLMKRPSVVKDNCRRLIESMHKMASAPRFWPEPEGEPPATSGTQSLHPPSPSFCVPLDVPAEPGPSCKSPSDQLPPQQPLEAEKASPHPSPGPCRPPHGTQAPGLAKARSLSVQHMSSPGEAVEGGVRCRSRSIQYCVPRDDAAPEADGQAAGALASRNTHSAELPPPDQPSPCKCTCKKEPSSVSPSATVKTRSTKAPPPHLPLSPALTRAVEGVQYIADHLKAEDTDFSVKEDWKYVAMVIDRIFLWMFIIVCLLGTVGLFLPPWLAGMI
# test-description: Agonist activity at human alpha4beta2 nACHR expressed in human SHEP1 cells assessed as stimulation of 86Rb+ ion efflux after 5 mins by liquid scintillation counting analysis
pEC50: −log10 of the molar value.
measured-property: pEC50

>  <smiles-structure>
COCC[C@H]1C[C@@H]1c1cncc(OC[C@@H]2CCCN2C)c1.O=C(O)C(F)(F)F

>  <result>
7.84

$$$$

* * *

We begin with a simple list: items and their reported EC50.
# assay-target: Neuronal acetylcholine receptor; alpha3/alpha6/beta2/beta3 (Homo sapiens, UniProt P17787+P32297+Q05901+Q15825)
# Sequence (P17787 whole entry): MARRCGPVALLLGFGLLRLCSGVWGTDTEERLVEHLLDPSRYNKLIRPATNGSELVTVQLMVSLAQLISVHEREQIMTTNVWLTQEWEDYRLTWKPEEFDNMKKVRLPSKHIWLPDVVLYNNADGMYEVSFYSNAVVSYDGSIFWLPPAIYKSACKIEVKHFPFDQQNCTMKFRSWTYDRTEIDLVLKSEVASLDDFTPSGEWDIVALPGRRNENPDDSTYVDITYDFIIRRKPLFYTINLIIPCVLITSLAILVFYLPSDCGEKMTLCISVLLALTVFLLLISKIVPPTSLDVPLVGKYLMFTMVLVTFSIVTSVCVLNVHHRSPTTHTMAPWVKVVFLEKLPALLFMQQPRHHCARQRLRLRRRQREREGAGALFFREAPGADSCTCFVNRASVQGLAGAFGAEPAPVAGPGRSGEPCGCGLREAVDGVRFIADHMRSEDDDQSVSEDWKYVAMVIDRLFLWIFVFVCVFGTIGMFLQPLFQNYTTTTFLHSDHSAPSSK
# Sequence (P32297 whole entry): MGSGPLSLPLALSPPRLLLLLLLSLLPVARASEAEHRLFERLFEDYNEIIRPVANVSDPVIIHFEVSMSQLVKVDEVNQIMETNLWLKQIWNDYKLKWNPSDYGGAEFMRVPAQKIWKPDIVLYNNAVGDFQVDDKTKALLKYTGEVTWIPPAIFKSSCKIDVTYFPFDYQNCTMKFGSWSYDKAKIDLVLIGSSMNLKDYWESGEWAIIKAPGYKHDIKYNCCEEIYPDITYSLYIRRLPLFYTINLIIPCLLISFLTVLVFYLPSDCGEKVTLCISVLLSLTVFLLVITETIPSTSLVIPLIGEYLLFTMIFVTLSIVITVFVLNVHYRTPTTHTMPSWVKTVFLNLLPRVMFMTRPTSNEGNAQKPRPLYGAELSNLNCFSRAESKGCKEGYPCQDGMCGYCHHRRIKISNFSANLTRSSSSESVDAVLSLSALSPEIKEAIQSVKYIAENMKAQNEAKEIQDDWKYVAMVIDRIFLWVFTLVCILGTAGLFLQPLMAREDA
# Sequence (Q15825 whole entry): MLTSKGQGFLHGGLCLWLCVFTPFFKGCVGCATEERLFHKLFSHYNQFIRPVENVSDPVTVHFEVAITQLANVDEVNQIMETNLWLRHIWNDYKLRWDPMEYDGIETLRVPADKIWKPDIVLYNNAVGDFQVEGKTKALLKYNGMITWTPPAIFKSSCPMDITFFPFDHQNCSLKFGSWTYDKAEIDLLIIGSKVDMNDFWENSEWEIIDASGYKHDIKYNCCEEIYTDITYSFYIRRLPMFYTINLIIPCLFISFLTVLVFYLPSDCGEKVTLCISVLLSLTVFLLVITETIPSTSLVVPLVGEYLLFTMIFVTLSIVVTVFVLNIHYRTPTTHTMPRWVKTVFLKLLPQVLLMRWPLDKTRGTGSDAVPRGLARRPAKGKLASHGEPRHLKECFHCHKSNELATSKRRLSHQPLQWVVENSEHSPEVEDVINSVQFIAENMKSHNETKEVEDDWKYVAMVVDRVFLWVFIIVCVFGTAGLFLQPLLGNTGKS
# Sequence (Q05901 whole entry): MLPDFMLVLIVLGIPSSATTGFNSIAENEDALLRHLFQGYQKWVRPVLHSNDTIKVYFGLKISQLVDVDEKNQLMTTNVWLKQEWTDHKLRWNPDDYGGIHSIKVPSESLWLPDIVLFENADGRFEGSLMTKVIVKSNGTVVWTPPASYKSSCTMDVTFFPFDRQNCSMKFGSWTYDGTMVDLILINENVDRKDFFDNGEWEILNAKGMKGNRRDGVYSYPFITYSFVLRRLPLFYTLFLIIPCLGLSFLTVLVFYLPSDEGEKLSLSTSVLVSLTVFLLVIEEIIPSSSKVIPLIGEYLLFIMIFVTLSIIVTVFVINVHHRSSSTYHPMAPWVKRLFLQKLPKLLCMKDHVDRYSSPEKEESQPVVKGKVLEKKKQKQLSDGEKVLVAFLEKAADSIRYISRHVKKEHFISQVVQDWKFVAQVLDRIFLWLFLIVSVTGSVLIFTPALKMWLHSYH
# test-description: Agonist activity at human alpha6/alpha3beta2beta3 nAChR expressed in human SHEP1 cells assessed as stimulation of 86Rb+ ion efflux after 5 mins by liquid scintillation counting analysis

>  <smiles-structure>
COCC[C@H]1C[C@@H]1c1cncc(OC[C@@H]2CCCN2)c1

>  <EC50 [nM]>
51.5

$$$$
>  <smiles-structure>
COCC[C@H]1C[C@@H]1c1cncc(OC[C@@H]2CCCN2C)c1.O=C(O)C(F)(F)F

>  <EC50 [nM]>
9

$$$$
>  <smiles-structure>
COCC[C@H]1C[C@@H]1c1cncc(OC[C@@H]2CCN2)c1

>  <EC50 [nM]>
7.4

$$$$
